Target: PBMC/LMP7 (Homo sapiens, UniProt P28062)
Construct: endogenous in cells
Test: Inhibition of proteasome activity in cells (Proteasome-Glo), PBMC
Conditions: primary human PBMC, 2 h incubation, Suc-LLVY-aminoluciferin substrate
readout-name: IC50 (nM)

Answered cases to consult:
compound | obs-value
CC(C)(C)C=C(C#N)C(=O)N1CCC[C@@H]1COC(=O)N[C@@H](Cc1ccccc1)B(O)O | 7.1
CC(C)C=C(C#N)C(=O)N1CCC[C@@H]1COCCC(=O)N[C@@H](Cc1ccccc1)B(O)O | 190
CC(C)C=C(C#N)C(=O)N1CCCCC1CCC(=O)N[C@@H](Cc1ccccc1)B(O)O (single isomer, unassigned) [Example 6] | 140
CC(C)C=C(C#N)C(=O)N1CCC[C@@H]1COC(=O)N[C@@H](Cc1ccccc1)B(O)O | 9.4
CC(C)C=C(C#N)C(=O)N1CCCCC1CCC(=O)N[C@@H](Cc1ccccc1)B(O)O (single isomer, unassigned) [Example 5] | 23
CC(C)C=C(C#N)C(=O)N1CCCC[C@@H]1COC(=O)N[C@@H](Cc1ccccc1)B(O)O | 420

A = CC(C)C=C(C#N)C(=O)N1CCCC1CCC(=O)N[C@@H](Cc1ccccc1)B(O)O (single isomer, unassigned) [Example 4]
B = CC(C)(C)C=C(C#N)C(=O)N1CCCC[C@@H]1COC(=O)N[C@@H](Cc1ccccc1)B(O)O
C = CC(C)C=C(C#N)C(=O)N1CCCC1CCC(=O)N[C@@H](Cc1ccccc1)B(O)O (single isomer, unassigned) [Example 3]
Please produce an ascending ranking of these compounds based on IC50. State the ranking by listing the labels in the requested order.
B, A, C
(B: 3.3 nM, A: 39 nM, C: 130 nM)

###

Molecular target: constitutive proteasome β5c unit (Homo sapiens, UniProt P20618+P28074)
Test: Caliper-based proteasome enzymatic activity assay, β5c
Conditions: human recombinant constitutive proteasome 0.3 nM, FAM-peptide substrate 1 μM, 3 h at rt; read-out: β5c subunit IC50
pIC50: −log10 of the molar value.
readout-name: pIC50

structure-notation | pIC50
Cc1ccc(C[C@H](NC(=O)OC[C@H]2[C@H]3C[C@H]3CN2C(=O)C(C#N)=CC2(C)CCOCC2)B(O)O)cc1 | 5.65
CC(C)(C=C(C#N)C(=O)N1CCC[C@@H]1COC(=O)N[C@@H](Cc1ccccc1)B(O)O)N1CCC(F)(F)CC1 | 5.71

###

Molecular target: constitutive proteasome β5c unit (Homo sapiens, UniProt P20618+P28074)
Test: Caliper-based proteasome enzymatic activity assay, β5c
Conditions: human recombinant constitutive proteasome 0.3 nM, FAM-peptide substrate 1 μM, 3 h at rt; read-out: β5c subunit IC50
pIC50: −log10 of the molar value.
readout-name: pIC50

structure-notation | pIC50
CC(C)(C=C(C#N)C(=O)N1CCCCC[C@@H]1COC(=O)N[C@@H](Cc1coc2ccccc12)B(O)O)N1CCC(F)(F)C1 | 6.65
CC(C)(C=C(C#N)C(=O)N1CCC[C@@H]1COC(=O)N[C@@H](Cc1coc2ccccc12)B(O)O)N1CCC(F)(F)C1 | 6.85
Cc1ccc(C[C@H](NC(=O)OC[C@@H]2CCCCCN2C(=O)C(C#N)=CC(C)(C)N2CCC(F)(F)C2)B(O)O)cc1 | 5.42
CC(C)(C)C=C(C#N)C(=O)N1CCCC[C@@H]1COC(=O)N[C@@H](Cc1ccccc1)B(O)O | 5.38

a = CC(C)(C=C(C#N)C(=O)N1CCOC[C@@H]1COC(=O)N[C@@H](Cc1coc2ccccc12)B(O)O)N1CCOCC1
b = COc1ccc(C[C@H](NC(=O)OC[C@H]2CCCCN2C(=O)C(C#N)=CC(C)(C)N2CCC(F)(F)C2)B(O)O)cc1
Quick check, higher pIC50 between a and b ? Kindly give the label for the entry you pick.
a

1 = Cc1ccc(C[C@H](NC(=O)OC[C@H]2[C@H]3C[C@H]3CN2C(=O)C(C#N)=CC(C)(C)C)B(O)O)cc1
2 = CC(C)(/C=C(/C#N)C(=O)N1CCCC[C@@H]1COC(=O)N[C@@H](Cc1ccccc1)B(O)O)N1CCC(F)(F)C1
Quick check, higher pIC50 between 1 and 2 ? Kindly give the label for the entry you pick.
1

P = CN(C)C/C=C/C(=O)N1C[C@@H]2C[C@@H]2[C@@H]1COC(=O)N[C@@H](Cc1coc2ccccc12)B(O)O
Q = CC(C)(C=C(C#N)C(=O)N1CCCC[C@@H]1COC(=O)N[C@@H](Cc1ccc(Cl)cc1)B(O)O)N1CCC(F)(F)C1
R = C=CC(=O)N1CCOC[C@@H]1COC(=O)N[C@@H](Cc1coc2ccccc12)B(O)O
// sort entries: pIC50, high to low State the ranking by listing the labels in the requested order.
R, Q, P

a = Cc1ccc(C[C@H](NC(=O)OC[C@H]2[C@H]3C[C@H]3CN2C(=O)C(C#N)=CC(C)(C)N2CCOCC2)B(O)O)cc1
b = CC(C)(C=C(C#N)C(=O)N1CCCC[C@@H]1COC(=O)N[C@@H](Cc1ccccc1)B(O)O)N1CCCC1
c = CC(C)(C=C(C#N)C(=O)N1CC(F)(F)C[C@@H]1COC(=O)N[C@@H](Cc1coc2ccccc12)B(O)O)N1CCOCC1
d = CC#CC(=O)N1C[C@@H]2C[C@@H]2[C@@H]1COC(=O)N[C@@H](Cc1coc2ccccc12)B(O)O
e = CC(C)(C=C(C#N)C(=O)N1CCCC[C@@H]1COC(=O)N[C@@H](Cc1ccccc1)B(O)O)N1CCC(F)(F)C1
Please produce an ascending ranking of these molecules based on pIC50. State the ranking by listing the labels in the requested order.
b, e, a, d, c
